These measurements were taken from patent US12522594B2.

- Tested On: AHR (Homo sapiens, UniProt P35869)
- Sequence (P35869 11-848): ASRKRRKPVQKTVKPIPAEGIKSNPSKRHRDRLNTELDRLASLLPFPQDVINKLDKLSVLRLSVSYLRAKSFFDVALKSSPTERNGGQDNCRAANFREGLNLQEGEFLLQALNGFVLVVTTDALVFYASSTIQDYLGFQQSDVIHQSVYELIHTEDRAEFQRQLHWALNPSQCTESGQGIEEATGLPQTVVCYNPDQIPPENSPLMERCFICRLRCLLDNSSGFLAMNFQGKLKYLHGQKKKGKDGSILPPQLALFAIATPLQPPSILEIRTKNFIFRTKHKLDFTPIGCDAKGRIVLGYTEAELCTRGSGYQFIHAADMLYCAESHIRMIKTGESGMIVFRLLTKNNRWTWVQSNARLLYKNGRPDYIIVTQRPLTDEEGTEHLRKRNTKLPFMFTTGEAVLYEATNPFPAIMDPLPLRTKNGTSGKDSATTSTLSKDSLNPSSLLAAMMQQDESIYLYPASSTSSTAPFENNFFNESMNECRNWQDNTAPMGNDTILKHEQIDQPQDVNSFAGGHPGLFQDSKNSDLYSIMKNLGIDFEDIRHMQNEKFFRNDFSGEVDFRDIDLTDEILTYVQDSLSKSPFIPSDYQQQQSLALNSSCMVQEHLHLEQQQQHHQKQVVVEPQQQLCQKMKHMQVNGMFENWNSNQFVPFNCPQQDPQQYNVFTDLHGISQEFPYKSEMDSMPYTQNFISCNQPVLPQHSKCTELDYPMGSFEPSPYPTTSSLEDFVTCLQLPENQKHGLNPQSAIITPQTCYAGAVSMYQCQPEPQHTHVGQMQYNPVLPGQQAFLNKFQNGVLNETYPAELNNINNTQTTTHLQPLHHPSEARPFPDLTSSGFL
- Protocol: In vitro assay 2: agonism in human cell line (transactivation assay, U87 cells, DRE firefly luciferase reporter)
- Assay type: cell-based
- Set-up: host or cells: U87 glioblastoma cells, stably transfected with DRE firefly luciferase and renilla reporter constructs
- Experimental Conditions: no kynurenic acid, 20 hours, read-out: Assay 2: AHR-luc Hum Agonism IC50
- Procedure: Transactivation Assay in Human Cell Line (In Vitro Assays 1 and 2) Transactivation assays were carried out in U87 glioblastoma cells (ATCC) endogenously expressing AHR. In addition the cells were stably transfected with an AHR inducible firefly luciferase reporter gene construct that carried AHR-binding sites (DRE) in its promoter and a renilla reporter gene construct with constitutively active promoter. […]
pIC50: −log10 of the molar value.
For each of the compounds below, state its pIC50.

Please review the entries below; each comes with its answer.
Cc1ccc(-c2cc(C(=O)NCC(O)C(F)F)c(=O)n(-c3cnn(C)c3)n2)cc1 (single isomer, unassigned; enantiomer 2) [Example 15] :: < 4.70
N#C[C@@H](CO)NC(=O)c1cc(-c2ccc(C(F)(F)F)nc2)nn(-c2cncc(F)c2)c1=O [Example 341] :: < 4.70
O=C(N[C@H]1CCC[C@@H]1O)c1cc(-c2ccc(C(F)F)nc2)nn(-c2cccnc2)c1=O [Example 165] :: < 4.70
O=C(NC[C@H](O)C(F)(F)F)c1cc(-c2ccc(CF)cc2)nn(-c2cccnc2)c1=O [Example 280] :: < 4.70
Cc1ccc(-c2cc(C(=O)N[C@@H](C)CO)c(=O)n(-c3cnn(C)c3)n2)cc1 [Example 8] :: < 4.70
O=C(N[C@@H]1CCCC[C@@H]1O)c1cc(-c2ccc(Cl)cc2)nn(-c2cccnc2)c1=O (relative stereo) [Example 133] :: < 4.70

Now look at this entry.
Prompt: State its pIC50 for this compound: O=C(N[C@H]1COC[C@@H]1O)c1cc(-c2ccc(Cl)cc2)nn(-c2cncc(F)c2)c1=O (single isomer, unassigned; enantiomer 1) [Example 155]
Completion: < 4.70
